# Test system: Candida albicans
# Protocol notes: Extended time kill study, Example 34 (0 to 24 h)
# Assay type: cell-based
# Test parameters: 2 × MIC; 0 h
Where a name gives a salt, the structure may show the parent alone.

| Compound | Readout unit | Viable counts in Log10 CFU/mL |
| --- | --- | --- |
| CCCCCCCCCCCCOC(=O)C(C)NCCO.Cl (centres unmarked) [Nex-61] | Log10 CFU/mL | 5.48 |
| CCCCCCCCCCCCOC(=O)C(C)NC(C)C.Cl (centres unmarked) [Nex-60] | Log10 CFU/mL | 5.51 |
| CCCCCCCCCCCCOC(=O)C(C)NC.Cl (centres unmarked) [Nex-59] | Log10 CFU/mL | 5.75 |
| CCCCCCCCCCCCOC(=O)C(C)NCCN(CC)CC.Cl (centres unmarked) [Nex-62] | Log10 CFU/mL | 5.76 |
| CCCCCCCCCCCCOC(=O)C(C)N(C)C (centres unmarked) [Nex-05, hydrochloride] | Log10 CFU/mL | 5.81 |

###

# Test system: Escherichia coli (ATCC 25922)
# Protocol notes: Minimum inhibitory concentration (MIC) assay, Example 33
# Assay type: cell-based
# Test parameters: Escherichia coli, ATCC25922, Table 19 summary of Example 33 and Example 35; read-out: MIC
Recorded endpoint: MIC (µg/mL)

| Molecule | Recorded endpoint | Assay value |
| --- | --- | --- |
| CCCCCCCCCCCC(C)(C)OC(=O)C(C)N(C)C.Cl (stereo not shown) | MIC | 3130 |
| CCCCCCCCCCCCOC(=O)C(C)NCCO.Cl (stereo not shown) | MIC | 780 |
| CCCCCCCCCCCCOC(=O)C(C)NCCN(CC)CC.Cl (stereo not shown) | MIC | 100 |
| CCCCCCCCCCCCOC(=O)C(C)NC(C)C.Cl (stereo not shown) | MIC | 3130 |

###

# System: Aspergillus niger (CMCC 98003)
# Protocol notes: Minimum inhibitory concentration (MIC) assay, Example 33
# Type: cell-based
# Test parameters: Aspergillus niger, CMCC98003, Table 19 summary; read-out: MIC
# Method: Thirty compounds were tested for antimicrobial activity using standard procedures and standard strains for both the minimum inhibitory concentration (MIC) assay and a time kill study. […] For Aspergillus niger, sporulating colonies were covered with RPMI 1640, and a suspension was prepared by gently probing the colonies with the tip of a transfer pipette. […] The MIC was read and recorded according to CLSI guidelines. […]
Counter-ions that a name gives are not always drawn.

| Molecule | Operator symbol | MIC / µg/mL |
| --- | --- | --- |
| CCCCCCCCCCCC(C)(C)OC(=O)C(C)N(C)C.Cl (stereo not drawn) | > | 12500 |
| CCCCCCCCCCCCOC(=O)C(C)NCCN(CC)CC.Cl (stereo not drawn) | = | 12.5 |
| CCCCCCCCCCCCOC(=O)C(C)N(C)C (stereo not drawn) [Nex-20, maleate] | > | 12500 |
| CCCCCCCCCCCCOC(=O)C(C)NC.Cl (stereo not drawn) | = | 50 |
| CCCCCCCCCCCCOC(=O)C(C)NCCO.Cl (stereo not drawn) | = | 50 |
| CCCCCCCCCCCCOC(=O)C(C)NC(C)C.Cl (stereo not drawn) | > | 12500 |

###

Overview of reported Viable counts in Log10 CFU/mL across a group of compounds:
# System: Aspergillus niger
# Protocol notes: Extended time kill study, Example 34 (0 to 24 h)
# Format: cell-based
# Test parameters: 2 × MIC, 24 h
Where a name gives a salt, the structure may show the parent alone.

| Compound | Operator symbol | Viable counts in Log10 CFU/mL / Log10 CFU/mL |
| --- | --- | --- |
| CCCCCCCCCCCCOC(=O)C(C)NCCO.Cl (centres unmarked) [Nex-61] | = | 3 |
| CCCCCCCCCCCCOC(=O)C(C)NCCN(CC)CC.Cl (centres unmarked) [Nex-62] | = | 5.58 |
| CCCCCCCCCCCCOC(=O)C(C)NC.Cl (centres unmarked) [Nex-59] | < | 2 |
| CCCCCCCCCCCCOC(=O)C(C)N(C)C (centres unmarked) [Nex-05, hydrochloride] | < | 2 |
| CCCCCCCCCCCCOC(=O)C(C)NC(C)C.Cl (centres unmarked) [Nex-60] | = | 4.30 |

These data points were gathered from patent US20140357713A1.
